// data source = paper PMC3781034

# experimentNotes: PK study in rats (oral)
# Format: in vivo
# settings: Sprague-Dawley, rat, plasma; Male SD, 1 mg/kg oral
measurementKind: half-life
Could you give the number and then its unit, please?

q: Which half-life value belongs to "CNC(=O)c1ccc2ccn(C3CCN(CCc4c(OC)ccc5c4OC(C)(C)CC5=O)CC3)c2c1.O=C(O)/C=C/C(=O)O" ?
a: 1.5 h

----------
# subjectOfTest: 5-HT1A receptors (Rattus norvegicus, UniProt P19327)
# Construct: occupancy of 5-HT1A receptors in living Sprague-Dawley rat brains; from tissue; host or cells: living Sprague-Dawley rat brain (medial prefrontal cortex, dorsal raphe nucleus), in vivo PET
# Sequence (P19327 1-422): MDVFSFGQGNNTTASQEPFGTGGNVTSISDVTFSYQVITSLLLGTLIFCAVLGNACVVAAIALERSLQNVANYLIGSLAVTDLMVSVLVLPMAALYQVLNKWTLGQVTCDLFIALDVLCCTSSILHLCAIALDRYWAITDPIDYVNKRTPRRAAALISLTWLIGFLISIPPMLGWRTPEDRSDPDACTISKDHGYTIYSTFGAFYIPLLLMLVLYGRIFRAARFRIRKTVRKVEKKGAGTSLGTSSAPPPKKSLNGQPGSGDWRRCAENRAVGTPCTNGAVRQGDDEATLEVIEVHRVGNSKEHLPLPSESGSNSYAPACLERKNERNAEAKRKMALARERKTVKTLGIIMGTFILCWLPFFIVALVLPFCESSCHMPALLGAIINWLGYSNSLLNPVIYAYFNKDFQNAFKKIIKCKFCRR
# experimentNotes: PET 5-HT1A receptor occupancy, time-course study (effect compartment model)
# Assay type: in vivo, Sprague-Dawley rat
# settings: MPFC; time-course study; read-out: EC50 for 5-HT1A RO, value in parentheses (free concentration-based)
measurementKind: pEC50
Numbers only, as −log10 of the molar value.

q: Requested read-out: pEC50. Entry: CNC(=O)c1ccc2ccn(C3CCN(CCc4c(OC)ccc5c4OC(C)(C)CC5=O)CC3)c2c1.O=C(O)/C=C/C(=O)O [E2110]
a: 9.46
